Each record here notes measured Intrinsic activity.
Species on record: Rattus norvegicus
Assay: Relaxation of rat aorta smooth muscle
Assay type: functional, Muscle tissue
The reply should contain only the number, in %.

Solved cases (5 shown):
CC1(C)Oc2ccc(C#N)cc2[C@H](N2CCCC2=O)[C@H]1O (single isomer, unassigned) [(-)-CROMAKALIM]    74.7
CNC(=O)C1=CC(C)(C)Oc2ccc([N+](=O)[O-])cc21    61
CC(C)NC(=O)C1=CC(C)(C)Oc2ccc([N+](=O)[O-])cc21    77.6
CC1(C)C=C(C(=O)NCCO)c2cc([N+](=O)[O-])ccc2O1    71.8
CC1(C)C=C(C(=O)NC2CC2)c2cc([N+](=O)[O-])ccc2O1    78

Attention now shifts to the item below.
Q) Returns the measured Intrinsic activity for the input molecule. Input: "CNC(=O)C1=CC(C)(C)Oc2ccc(C#N)cc21"
A) 66.6

====

Species: Rattus norvegicus
Assay: Relaxation of rat aorta smooth muscle precontracted with 30 mM KCl (Negative logarithm of molar concentration required)
Type: functional, organism-based
Details: Muscle tissue
# pEC50 per entry
Bear in mind: pEC50 is minus log10 of a mol/L concentration; give just that figure.

Examples with their reported pEC50 follow.
C#CCNC(=O)C1=CC(C)(C)Oc2ccc([N+](=O)[O-])cc21    8.10
CCCCNC(=O)C1=CC(C)(C)Oc2ccc([N+](=O)[O-])cc21    7.66
CC1(C)C=C(C(=O)NCC2CC2)c2cc([N+](=O)[O-])ccc2O1    8.18
CC1(C)C=C(C(=O)NC2CC2)c2cc([N+](=O)[O-])ccc2O1    7.49

Q) # lookup: pEC50 of "CC1(C)C=C(C(=O)NCCO)c2cc([N+](=O)[O-])ccc2O1"
A) 6.74

Q) Entry under review: "CC1(C)C=C(C(=O)NCCF)c2cc([N+](=O)[O-])ccc2O1" . Reported pEC50?
A) 7.69

Q) Could you tell me which pEC50 is on file for "CCCNC(=O)C1=CC(C)(C)Oc2ccc([N+](=O)[O-])cc21" ?
A) 8.24

Q) Which pEC50 reading was recorded for the compound "CC1(C)C=C(C(N)=O)c2cc([N+](=O)[O-])ccc2O1" ?
A) 6.44

Q) Return reported pEC50; argument: "CCNC(=O)C1=CC(C)(C)Oc2ccc([N+](=O)[O-])cc21"
A) 8.34

Q) Param item = "CC(C)NC(=O)C1=CC(C)(C)Oc2ccc([N+](=O)[O-])cc21" ; retrieve measured pEC50.
A) 6.73

Q) What measured pEC50 goes with CC1(C)Oc2ccc(C#N)cc2[C@H](N2CCCC2=O)[C@H]1O (single isomer, unassigned) [(-)-CROMAKALIM] ?
A) 6.77

====

Reported values of Intrinsic activity for individual entries
Species: Rattus norvegicus
Assay: Relaxation of rat aorta smooth muscle
Assay type: functional, Muscle tissue

C#CCNC(=O)C1=CC(C)(C)Oc2ccc([N+](=O)[O-])cc21    80.2%
CC1(C)C=C(C(=O)NCCF)c2cc([N+](=O)[O-])ccc2O1    81.6%

Q) Sample "CCNC(=O)C1=CC(C)(C)Oc2ccc([N+](=O)[O-])cc21" — what was its Intrinsic activity?
A) 80.5%
